# TEST_PROTOCOL: Partition coefficient, log P by shake flask method
# Format: physicochemical
# RECORDED_CONDITIONS: octanol/water
Consider the following compounds; for each one, report its logP.

Prompt: logP for CN(C)c1ccc(-c2cc(-c3ccc(N(C)C)cc3)[s+]c(C(C)(C)C)c2)cc1 ?
Completion: 1.51

Prompt: Lookup CC(C)c1cc(-c2ccc(N(C)C)cc2)cc(-c2ccc(N(C)C)cc2)[s+]1
Completion: 0.23

Prompt: Lookup Cc1cc(-c2ccc(N(C)C)cc2)cc(-c2ccc(N(C)C)cc2)[s+]1
Completion: 0.6

Prompt: Lookup CCCc1cc(-c2ccc(N(C)C)cc2)cc(-c2ccc(N(C)C)cc2)[s+]1
Completion: 0.82

Prompt: Lookup CCc1cc(-c2ccc(N(C)C)cc2)cc(-c2ccc(N(C)C)cc2)[s+]1
Completion: 0.13

Prompt: Lookup CN(C)c1ccc(-c2cc(-c3ccc(N(C)C)cc3)[se+]c(C(C)(C)C)c2)cc1
Completion: 1.57

Prompt: Lookup CCCCc1cc(-c2ccc(N(C)C)cc2)cc(-c2ccc(N(C)C)cc2)[s+]1
Completion: 1.63

----------
# Tested on: DNA
# TEST_PROTOCOL: Binding affinity to calf thymus DNA by isothermal titration calorimetry
# Format: nucleic-acid assay
# RECORDED_CONDITIONS: Bos taurus
MEASUREMENT_NAME: Kb

Prompt: Kb for Cc1cc(-c2ccc(N(C)C)cc2)cc(-c2ccc(N(C)C)cc2)[s+]1 ?
Completion: 1.7 10^5/M

Prompt: Lookup CCCc1cc(-c2ccc(N(C)C)cc2)cc(-c2ccc(N(C)C)cc2)[s+]1
Completion: 2.4 10^5/M

Prompt: Lookup CN(C)c1ccc(-c2cc(-c3ccc(N(C)C)cc3)[se+]c(C(C)(C)C)c2)cc1
Completion: 3.9 10^5/M

Prompt: Lookup CN(C)c1ccc(-c2cc(-c3ccc(N(C)C)cc3)[s+]c(C(C)(C)C)c2)cc1
Completion: 4.2 10^5/M

----------
Consider the following compounds; for each one, report its Kb.
# System: Escherichia coli
# TEST_PROTOCOL: Binding affinity to pUC19 DNA assessed as drug concentration to induce plasmid re-supercoiling by topoisomerase 1 DNA unwinding assay

Prompt: Kb for Cc1cc(-c2ccc(N(C)C)cc2)cc(-c2ccc(N(C)C)cc2)[s+]1 ?
Completion: 66 10^6/M

Prompt: Lookup CN(C)c1ccc(-c2cc(-c3ccc(N(C)C)cc3)[se+]c(C(C)(C)C)c2)cc1
Completion: 22 10^6/M

Prompt: Lookup CCCc1cc(-c2ccc(N(C)C)cc2)cc(-c2ccc(N(C)C)cc2)[s+]1
Completion: 45 10^6/M

Prompt: Lookup CN(C)c1ccc(-c2cc(-c3ccc(N(C)C)cc3)[s+]c(C(C)(C)C)c2)cc1
Completion: 23 10^6/M

----------
# System: DNA
# TEST_PROTOCOL: Binding affinity to calf thymus DNA by spectrophotometric titration method
# Format: nucleic-acid assay
# RECORDED_CONDITIONS: Bos taurus
Consider the following compounds; for each one, report its Kb.

Prompt: Kb for CN(C)c1ccc(-c2cc(-c3ccc(N(C)C)cc3)[se+]c(C(C)(C)C)c2)cc1 ?
Completion: 8.7 10^4/M

Prompt: Lookup CCCc1cc(-c2ccc(N(C)C)cc2)cc(-c2ccc(N(C)C)cc2)[s+]1
Completion: 5 10^4/M

Prompt: Lookup CN(C)c1ccc(-c2cc(-c3ccc(N(C)C)cc3)[s+]c(C(C)(C)C)c2)cc1
Completion: 10.1 10^4/M

Prompt: Lookup Cc1cc(-c2ccc(N(C)C)cc2)cc(-c2ccc(N(C)C)cc2)[s+]1
Completion: 5.2 10^4/M
